Tested on: KM-20L2
Experimental Details: In vitro inhibition of tumor cell growth of KM20L2, colon cancer cell line
Format: functional
Run Conditions: Homo sapiens
Quantity Measured: GI50 (µM)

1) Cc1ccc(-c2cc(O)c3cc4c(cc3n2)OCO4)cc1 : 1.41
2) COc1cccc(-c2cc(O)c3cc4c(cc3n2)OCO4)c1 : 0.182
3) COc1cc(OC)cc(-c2cc(O)c3cc4c(cc3n2)OCO4)c1 : 0.708
4) Oc1cc(-c2ccccn2)nc2ccc(Cl)cc12 : 39.8
5) CN(C)c1cccc(-c2cc(O)c3ccccc3n2)c1 : 34.7
6) Oc1cc(-c2ccc[nH]2)nc2cc3c(cc12)OCO3 : 20
7) COc1cccc(-c2cc(O)c3cc(OC)c(OC)cc3n2)c1 : 24
8) COc1ccc(OC)c(-c2cc(O)c3cc4c(cc3n2)OCO4)c1 : 6.92

---

IC50 listing for selected compounds.
Experimental System: Tubulin beta chain (Bos taurus)
Sequence (Q6B856 whole entry): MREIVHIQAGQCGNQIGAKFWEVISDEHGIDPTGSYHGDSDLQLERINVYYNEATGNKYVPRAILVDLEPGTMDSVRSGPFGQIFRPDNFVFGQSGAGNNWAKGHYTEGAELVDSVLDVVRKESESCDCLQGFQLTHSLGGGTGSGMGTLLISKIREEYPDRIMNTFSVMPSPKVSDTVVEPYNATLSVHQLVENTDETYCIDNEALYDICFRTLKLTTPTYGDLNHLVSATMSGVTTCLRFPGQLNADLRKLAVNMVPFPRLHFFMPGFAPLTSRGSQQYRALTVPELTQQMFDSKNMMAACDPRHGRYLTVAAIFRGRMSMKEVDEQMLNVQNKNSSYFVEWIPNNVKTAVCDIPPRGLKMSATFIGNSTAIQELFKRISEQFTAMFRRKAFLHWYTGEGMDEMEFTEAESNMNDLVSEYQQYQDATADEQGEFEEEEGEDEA
Experimental Details: Inhibition of tubulin polymerization
Quantity Measured: IC50 (µM)

1) COc1cc2nc(-c3cccc(N(C)C)c3)cc(O)c2cc1OC : 15
2) Oc1cc(-c2ccc[nH]2)nc2cc3c(cc12)OCO3 : 18
3) Oc1cc(-c2ccccc2Cl)nc2cc3c(cc12)OCO3 : 0.89
4) O=c1cc(-c2ccccc2F)[nH]c2cc3c(cc12)OCO3 : 0.85
5) COc1ccc2nc(-c3ccc(O)cc3)cc(O)c2c1 : 5.6
6) COc1cccc(-c2cc(O)c3cc(OC)c(OC)cc3n2)c1 : 4.3
7) COc1cc(OC)cc(-c2cc(O)c3cc4c(cc3n2)OCO4)c1 : 0.62
8) COc1ccccc1-c1cc(O)c2cc3c(cc2n1)OCO3 : 14
9) CN(C)c1cccc(-c2cc(O)c3cc4c(cc3n2)OCO4)c1 : 0.7
10) COc1ccc(CCc2cc(OC)c(OC)c(OC)c2)cc1O : 0.63
11) CN(C)c1cccc(-c2cc(O)c3ccccc3n2)c1 : 1.5
12) COc1cccc(-c2cc(O)c3ccccc3n2)c1 : 1.4
13) Oc1cc(-c2ccco2)nc2cc3c(cc12)OCO3 : 23
14) COc1ccc2nc(-c3ccccc3)cc(O)c2c1 : 0.61
15) Oc1cc(-c2ccccc2)nc2cc3c(cc12)OCO3 : 0.63

---

Test system: KM-20L2
Experimental Details: In vitro inhibition of tumor cell growth of KM20L2, colon cancer cell line
Assay type: functional
Run Conditions: Homo sapiens
GI50: recorded values
Quantity Measured: GI50 (µM)

1) COc1ccc2nc(-c3ccccn3)cc(O)c2c1 : 35.5
2) COc1cccc(-c2cc(O)c3ccccc3n2)c1 : 8.51
3) Oc1cc(-c2ccccc2)nc2cc3c(cc12)OCO3 : 0.182
4) Oc1cc(-c2ccco2)nc2cc3c(cc12)OCO3 : 21.4

---

Test system: OVCAR-3
Experimental Details: In vitro inhibition of tumor cell growth of OVCAR-3, ovarian cancer cell line
Type: functional
Run Conditions: Homo sapiens
Quantity Measured: GI50 (µM)

1) COc1ccc2nc(-c3ccc(O)cc3)cc(O)c2c1 : 0.302
2) COc1ccccc1-c1cc(O)c2cc3c(cc2n1)OCO3 : 39.8
3) COc1ccc2nc(-c3cccc(N(C)C)c3)cc(O)c2c1 : 0.17
4) COc1cccc(-c2cc(O)c3cc(OC)c(OC)cc3n2)c1 : 33.9
